Biological target: T1, soluble human FcRn (shFcRn) (human, UniProt P55899 24-297; P61769 21-119)
T1 construct: Biotinylated for the ELISA, amine-coupled to a CM5 chip for SPR; also called biotinylated shFcRn
T1 sequence (P55899 24-297 limits assumed, chain 1 of 2): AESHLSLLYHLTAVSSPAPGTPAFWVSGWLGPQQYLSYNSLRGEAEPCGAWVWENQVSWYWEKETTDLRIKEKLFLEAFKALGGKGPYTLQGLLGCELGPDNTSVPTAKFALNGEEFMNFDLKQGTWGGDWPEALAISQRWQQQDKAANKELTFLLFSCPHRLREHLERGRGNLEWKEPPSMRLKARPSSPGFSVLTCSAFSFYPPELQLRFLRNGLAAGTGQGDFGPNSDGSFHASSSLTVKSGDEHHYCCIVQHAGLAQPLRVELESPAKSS
T1 sequence (P61769 21-119 limits assumed, chain 2 of 2): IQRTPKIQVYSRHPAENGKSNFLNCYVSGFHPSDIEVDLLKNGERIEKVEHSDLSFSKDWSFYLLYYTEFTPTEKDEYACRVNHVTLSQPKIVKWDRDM
Assay: IgG competition ELISA
Bridge positions count the residues as written; N and C are the ends. Square brackets hold non-standard residues; d marks the D form. Ends that are not written are not given here. NMeL = CN[C@@H](CC(C)C)C(=O)O; Pen = CC(C)(S)[C@H](N)C(=O)O
readoutLabel: IC50 (µM)
Number in µM, nothing else.

Bench note: what IC50 did QRF[Pen]TGHFG[dP]LYPCNGP-NH2 (disulfide 4-14; N-terminus assumed; SMILES CC(C)C[C@@H]1NC(=O)[C@H]2CCCN2C(=O)CNC(=O)[C@H](Cc2ccccc2)NC(=O)[C@H](Cc2c[nH]cn2)NC(=O)CNC(=O)[C@H]([C@@H](C)O)NC(=O)[C@@H](NC(=O)[C@H](Cc2ccccc2)NC(=O)[C@H](CCCNC(=N)N)NC(=O)[C@@H](N)CCC(N)=O)C(C)(C)SSC[C@@H](C(=O)N[C@@H](CC(N)=O)C(=O)NCC(=O)N2CCC[C@H]2C(N)=O)NC(=O)[C@@H]2CCCN2C(=O)[C@H](Cc2ccc(O)cc2)NC1=O) [Peptide No. 40] show?
1.4

Bench note: what IC50 did QRF[Pen]TGHFG[dI]LYPCNGP-NH2 (disulfide 4-14; N-terminus assumed; SMILES CC[C@@H](C)[C@H]1NC(=O)CNC(=O)[C@H](Cc2ccccc2)NC(=O)[C@H](Cc2c[nH]cn2)NC(=O)CNC(=O)[C@H]([C@@H](C)O)NC(=O)[C@@H](NC(=O)[C@H](Cc2ccccc2)NC(=O)[C@H](CCCNC(=N)N)NC(=O)[C@@H](N)CCC(N)=O)C(C)(C)SSC[C@@H](C(=O)N[C@@H](CC(N)=O)C(=O)NCC(=O)N2CCC[C@H]2C(N)=O)NC(=O)[C@@H]2CCCN2C(=O)[C@H](Cc2ccc(O)cc2)NC(=O)[C@H](CC(C)C)NC1=O) [Peptide No. 43] show?
18

In the following, a different binder is considered.
Bench note: what IC50 did QRF[Pen]TGHF[dF]G[NMeL]YPCNGP-NH2 (disulfide 4-14; N-terminus assumed; SMILES CC(C)C[C@H]1C(=O)N[C@@H](Cc2ccc(O)cc2)C(=O)N2CCC[C@H]2C(=O)N[C@H](C(=O)N[C@@H](CC(N)=O)C(=O)NCC(=O)N2CCC[C@H]2C(N)=O)CSSC(C)(C)[C@H](NC(=O)[C@H](Cc2ccccc2)NC(=O)[C@H](CCCNC(=N)N)NC(=O)[C@@H](N)CCC(N)=O)C(=O)N[C@@H]([C@@H](C)O)C(=O)NCC(=O)N[C@@H](Cc2c[nH]cn2)C(=O)N[C@@H](Cc2ccccc2)C(=O)N[C@H](Cc2ccccc2)C(=O)NCC(=O)N1C) [Peptide No. 153] show?
1.3
